Reported values of efflux ratio at 2 h for individual entries
# test_protocol: Assay C: permeability in CACO-2 cells
# Format: in vitro ADME
# assay_context: human, pH 7.2; Caco-2; compounds of the invention, Table 7
# Method: Compounds are dissolved in appropriate solvent (like DMSO, 1-20 mM stock solutions). […] The transport solution (TL) is applied to the apical or basolateral donor side for measuring A-B or B-A permeability (3 filter replicates), respectively. Samples are collected at the start and end of experiment from the donor and at various time intervals for up to 2 hours also from the receiver side for concentration measurement by HPLC-MS/MS or scintillation counting. […]
Give the figure only, with no unit attached.

Answered cases to consult:
Cn1cnnc1C1(C)CCN(c2c(C#N)cccc2-c2cccnc2)CC1; 4.9
Cn1cnnc1C1CCN(c2c(C#N)cccc2-c2cnc(F)c(OC(F)F)c2)CC1; 2
Cn1cnnc1C1CCN(c2c(C#N)cccc2-c2cncc(-c3ccccc3)c2)CC1 [compound 21, reference compound]; 2.8

What measured efflux ratio at 2 h goes with "Cn1cnnc1C1CCN(c2c(C#N)cccc2-c2cnc(F)c(Oc3ccccc3)c2)CC1" ?
1.9

Which value of efflux ratio at 2 h has been reported for "Cn1cnnc1C1CCN(c2c(C#N)cccc2-c2cnc(F)c(OC3CCC3)c2)CC1" in the records?
3.3

Need efflux ratio at 2 h of Cn1cnnc1C1CCN(c2c(C#N)cccc2-c2cncc(OC(F)F)c2)CC1 [compound 23, reference compound] , thanks.
7.1

Entry under review: "Cn1cnnc1C1CCN(c2c(C#N)cccc2-c2cnc3n[nH]cc3c2)CC1" . Reported efflux ratio at 2 h?
48.6

For the molecule shown here, "Cn1cnnc1C1(F)CCN(c2c(C#N)cccc2-c2cnc3nn(CC(F)(F)F)cc3c2)CC1" , give the reported efflux ratio at 2 h.
40

---

# target_under_test: QPCTL (Homo sapiens (Human))
# Sequence (Q9NXS2 whole entry): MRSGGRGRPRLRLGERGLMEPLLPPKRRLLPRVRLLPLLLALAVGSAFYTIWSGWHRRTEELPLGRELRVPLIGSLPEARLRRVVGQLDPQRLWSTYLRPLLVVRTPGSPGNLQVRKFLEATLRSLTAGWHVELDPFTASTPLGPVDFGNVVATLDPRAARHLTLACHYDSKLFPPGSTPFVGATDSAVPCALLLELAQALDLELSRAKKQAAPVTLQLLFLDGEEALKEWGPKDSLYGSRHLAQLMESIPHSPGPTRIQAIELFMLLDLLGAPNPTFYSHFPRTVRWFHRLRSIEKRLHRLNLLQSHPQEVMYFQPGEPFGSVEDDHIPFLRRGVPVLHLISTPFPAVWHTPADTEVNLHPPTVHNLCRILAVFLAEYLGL
# test_protocol: Assay A: biochemical QPCTL activity assay (MALDI-TOF MS)
# assay_context: prior art compounds, Table 3; read-out: Inhibition of QPCTL: IC50
Form field: IC50 (one value per entry).
Supply the numeric figure in nM, leaving out any unit text.

Nc1ncc(C2CCN(c3ncccc3-c3ccc(F)nc3)CC2)s1 [compound 1094, reference compound]; 111
Cn1cnnc1C1CCN(c2c(C#N)cccc2-c2cncc(-n3cccn3)c2)CC1 [compound 6, reference compound]; 1
Cn1cnnc1C1CCN(S(=O)(=O)c2cccc(Nc3ccc(OCc4ccccc4)nc3)c2)CC1 [compound 23, reference compound]; 4770

Please find the next compound below.
Lab request: please report IC50 under test system QPCTL (Homo sapiens (Human)) for Nc1nnc(C2CCN(c3ncccc3-c3ccc(F)nc3)CC2)s1 [compound 1095, reference compound]
13

---

# test_protocol: Assay C: permeability in CACO-2 cells
# Format: in vitro ADME
# assay_context: human, pH 7.2; Caco-2; compounds of the invention, Table 7
property_measured: efflux ratio
Answer with a number only.

Please review the entries below; each comes with its answer.
Cn1cnnc1C1CCN(c2c(C#N)cccc2-c2cncc(C(N)=O)c2)CC1 [compound 14]; 50.9
Cn1cnnc1C1CCN(c2c(C#N)cccc2-c2cnc3c(c2)NCCO3)CC1 [compound 24]; 34
Cc1ccncc1-c1cccc(C#N)c1N1CCC(c2nncn2C)CC1 [compound 8]; 9.5
Cn1cnnc1C1CCN(c2c(C#N)cccc2-c2ccc(Cl)nc2)CC1 [compound 18]; 5
Cn1cnnc1C1CCN(c2c(C#N)cccc2-c2cnc3c(c2)OCO3)CC1 [compound 25]; 7.4
Cn1cnnc1C1(F)CCN(c2c(C#N)cccc2-c2cnc3nn(C(C)(C)C(F)(F)F)cc3c2)CC1 [compound 61]; 8.9
Cc1cncc(-c2cccc(C#N)c2N2CCC(c3nncn3C)CC2)c1 [compound 11]; 7.7

Could you now consider this next compound?
Suppose we examine the compound Cn1cnnc1C1CCN(c2c(C#N)cccc2-c2cnc3nc(-c4cccc(Cl)c4)ccn23)CC1 [compound 28] ; what efflux ratio value has been reported?
12.4

---

# target_under_test: UniProt:Q9NXS2
# test_protocol: Assay A: biochemical QPCTL activity assay (MALDI-TOF MS)
# assay_context: compounds of the invention, Table 2; read-out: Inhibition of QPCTL: IC50
class 1 if IC50 is below 2 nM. class 0 if not; exact matches included in class 0.

Cn1cnnc1C1(F)CCN(c2c(C#N)cccc2-c2cnc3ncccc3c2)CC1; class 0
Cn1ccnc1-c1cncc(-c2cccc(C#N)c2N2CCC(c3nncn3C)CC2)c1; class 1
Cn1cnnc1C1CCN(c2c(C#N)cccc2-c2cncc(F)c2)CC1; class 0
Cn1cnnc1C1CCN(c2c(C#N)cccc2-c2ccnnc2)CC1; class 1
Cn1cnnc1C1CCN(c2c(C#N)cccc2-c2cnc3nnn(C)c3c2)CC1; class 1

# input for lookup
Given the entry "Cn1cnnc1C1(F)CCN(c2c(C#N)cccc2-c2cnc3nn(C(F)(F)F)cc3c2)CC1" , would its reported IC50 be below 2 nM?
class 1

---

# test_protocol: Assay C: permeability in CACO-2 cells
# Type: in vitro ADME
# assay_context: human, pH 7.2; Caco-2, apical to basolateral; compounds of the invention, Table 7
property_measured: Papp A→B

// solved cases for Papp A→B follow
Cn1cnnc1C1CCN(c2c(C#N)cccc2-c2cncc(-n3cccn3)c2)CC1 [compound 6, reference compound]; 3.9 ×10⁻⁶ cm/s
Cn1cnnc1C1(F)CCN(c2c(C#N)cccc2-c2cnc(O)nc2)CC1; 0.1 ×10⁻⁶ cm/s
Cn1cnnc1C1(F)CCN(c2c(C#N)cccc2-c2cnc3nc(C(C)(C)C)cn3c2)CC1; 2.7 ×10⁻⁶ cm/s
Cn1cnnc1C1CCN(c2c(C#N)cccc2-c2cnsc2)CC1; 25 ×10⁻⁶ cm/s
Cn1cnnc1C1CCN(c2c(C#N)cccc2-c2cncc(C3CCCCO3)c2)CC1 (centres unmarked); 10 ×10⁻⁶ cm/s
Cn1cnnc1C1CCN(c2c(C#N)cccc2-c2cnc(F)c(OC(F)(F)F)c2)CC1; 39 ×10⁻⁶ cm/s

Can you look up the measured Papp A→B of "Cn1cnnc1C1CCN(c2c(C#N)cccc2-c2cnc(F)c(OCC3CC3)c2)CC1" for me?
34 ×10⁻⁶ cm/s

Look up Papp A→B for this molecule: "Cn1cnnc1C1(F)CCN(c2c(C#N)cccc2-c2cnc3nn(C(C)(C)C)cc3c2)CC1"
4.9 ×10⁻⁶ cm/s

---

# target_under_test: QPCTL (Homo sapiens (Human))
# test_protocol: Assay A: biochemical QPCTL activity assay (MALDI-TOF MS)
# assay_context: compounds of the invention, Table 2; read-out: Inhibition of QPCTL: IC50
property_measured: IC50 (nM)
Output spec: scalar in nM, unitless text.

Cn1cnnc1C1CCN(c2c(C#N)cccc2-c2cnc3nc[nH]c3c2)CC1; 1

Item "Cn1cnnc1C1CCN(c2c(C#N)cccc2-c2cnc(F)c(OCc3ccccc3)c2)CC1" has what recorded IC50?
2

# lookup: IC50 of Cn1cnnc1C1CCN(c2c(C#N)cccc2-c2cncc(-n3cccn3)c2)CC1 [compound 6, reference compound]
1

Given the compound "Cn1cnnc1C1CCN(c2c(C#N)cccc2-c2cnc3c(c2)CCCO3)CC1" , what is its reported IC50?
12

Record request: IC50 value, item "Cn1cnnc1C1(F)CCN(c2c(C#N)cccc2-c2cnn3nc(-c4cccc(Cl)c4)ccc23)CC1"
2

Requested read-out: IC50. Entry: "Cn1cc2cc(-c3cccc(C#N)c3N3CCC(c4nncn4C)CC3)cnc2n1"
1

---

# target_under_test: QPCTL (Homo sapiens (Human))
# test_protocol: Assay A: biochemical QPCTL activity assay (MALDI-TOF MS)
# assay_context: compounds of the invention, Table 2; read-out: Inhibition of QPCTL: IC50
Please use MET for IC50 under 2 nM and NOT MET for everything else, ties included.

Cn1cnnc1C1CCN(c2c(C#N)cccc2-c2cnc3nn(C(C)(C)C)cc3c2)CC1; MET

Given the entry "Cn1cnnc1C1CCN(c2c(C#N)cccc2-c2cncc3cn(Cc4ccccc4)nc23)CC1" , would its reported IC50 be below 2 nM?
NOT MET

I wonder whether "Cn1cnnc1C1CCN(c2c(C#N)cccc2-c2cncc3cnn(Cc4ccccc4)c23)CC1" has IC50 below 2 nM. Can you tell?
MET

Please check: IC50 for "Cn1cnnc1C1CCN(c2c(C#N)cccc2-c2cccnc2)CC1" , strictly under 2 nM or not?
NOT MET

# TODO verify IC50 < 2 nM strictly for this compound: "Cn1cnnc1C1(F)CCN(c2c(C#N)cccc2-c2cncc3cn(Cc4ccccc4)nc23)CC1"
NOT MET

---

# Tested on: SIRPα signalling induced by Raji cells
# test_protocol: Assay B: SIRPα signalling assay using Raji cells
# Type: cell-based, human
# assay_context: Homo sapiens, compounds of the invention, Table 4, read-out: Inhibition of SIRα signalling induced by Raji cells: IC50
Consider the cut-off 400 nM. If the recorded IC50 is strictly smaller, the label is Met; if not, the label is Not met.

Worked cases, answers included:
Cn1cnnc1C1(F)CCN(c2c(C#N)cccc2-c2cnc3ncccc3c2)CC1 [compound 68]; Met
Cn1cnnc1C1CCN(c2c(C#N)cccc2-c2cnc3n[nH]cc3c2)CC1 [compound 26]; Not met
Cn1cnnc1C1(F)CCN(c2c(C#N)cccc2-c2cncc3cn(Cc4ccccc4)nc23)CC1 [compound 78]; Not met
CC#Cc1cncc(-c2cccc(C#N)c2N2CCC(c3nncn3C)CC2)c1 [compound 10]; Not met
Cc1cc(C)n(-c2cncc(-c3cccc(C#N)c3N3CCC(c4nncn4C)CC3)c2)n1 [compound 51]; Met
Cn1cnnc1C1(F)CCN(c2c(C#N)cccc2-c2cnc3nn(Cc4ccccc4)nc3c2)CC1 [compound 64]; Met
Cn1cnnc1C1(F)CCN(c2c(C#N)cccc2-c2cnc3nc(C(F)(F)F)nn3c2)CC1 [compound 73]; Met

Next:
hey, is IC50 for Cn1cnnc1C1CCN(c2c(C#N)cccc2-c2cccnc2)CC1 [compound 67] lower than 400 nM or not?
Met
